Source of measurements: patent US20220048967A1

Experimental Target: T1, human gastric inhibitory peptide receptor (GIPR) (human, UniProt P48546 22-466); note: reference of the scale not given here
T1 sequence (looked up): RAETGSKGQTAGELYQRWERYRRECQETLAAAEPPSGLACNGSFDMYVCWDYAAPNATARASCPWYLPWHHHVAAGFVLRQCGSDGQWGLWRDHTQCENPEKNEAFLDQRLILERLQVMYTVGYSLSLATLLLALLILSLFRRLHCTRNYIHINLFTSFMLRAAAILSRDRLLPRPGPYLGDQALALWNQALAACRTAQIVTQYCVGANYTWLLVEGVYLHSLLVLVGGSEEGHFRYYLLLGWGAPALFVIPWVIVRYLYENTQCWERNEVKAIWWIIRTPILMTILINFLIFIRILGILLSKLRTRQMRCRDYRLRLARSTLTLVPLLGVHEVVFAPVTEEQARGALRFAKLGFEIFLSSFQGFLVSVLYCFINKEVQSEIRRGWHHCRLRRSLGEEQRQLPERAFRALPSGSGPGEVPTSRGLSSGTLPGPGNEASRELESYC
Assay Overview: cell-based or functional assay

Binder	hGIPR cAMP EC50 ratio
YXEGTFTSDYSILLDKKAQQAFIEYLIEGGPSSGAPPPS (Aib2, (2-[2-(2-Amino-ethoxy)-ethoxy]-acetyl)2-(γ-Glu)-CO-(CH2)18-CO2H on K17, C-terminal NH2) [Example 254]	0.695
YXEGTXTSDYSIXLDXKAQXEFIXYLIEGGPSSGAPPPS (Aib2, αMeF(2F)6, Aib13, Orn16, (2-[2-(2-Amino-ethoxy)-ethoxy]-acetyl)2-(γ-Glu)-CO-(CH2)18-CO2H on K17, Aib20, D-Glu24, C-terminal NH2) [Example 250]	4.27
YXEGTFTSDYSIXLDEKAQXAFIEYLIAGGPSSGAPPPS (Aib2, αMeL13, (2-[2-(2-Amino-ethoxy)-ethoxy]-acetyl)2-(γ-Glu)-CO-(CH2)18-CO2H on K17, Aib20, C-terminal NH2) [Example 332]	0.949
YXEGTFTSDYSIXLDKKAQXEFIEYLIEGGPSSG (Aib2, αMeL13, (2-[2-(2-Amino-ethoxy)-ethoxy]-acetyl)2-(γ-Glu)-CO-(CH2)16-CO2H on K17, Aib20, C-terminal NH2) [Example 304]	2.68
